Target: T1, Human IL-18Rα extracellular domain (human, UniProt Q13478 22-329, biotinylated (site not stated))
T1 construct: also called IL-18 receptor
T1 sequence: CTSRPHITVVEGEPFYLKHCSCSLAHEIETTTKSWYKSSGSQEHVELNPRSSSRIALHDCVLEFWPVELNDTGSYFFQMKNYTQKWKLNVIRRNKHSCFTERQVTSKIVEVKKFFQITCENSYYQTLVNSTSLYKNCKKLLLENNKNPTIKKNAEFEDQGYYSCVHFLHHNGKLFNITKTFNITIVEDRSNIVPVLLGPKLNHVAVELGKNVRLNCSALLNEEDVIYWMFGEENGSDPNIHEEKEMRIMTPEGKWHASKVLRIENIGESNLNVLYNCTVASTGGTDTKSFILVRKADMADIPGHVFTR
Assay: SPR, Biacore 8K, 37 C, biotinylated target on SA chip, single-cycle kinetics
pKd: −log10 of the molar value.
readout: pKd

binder="Human IL-18 S43C/S86C (ligand, Made in mammalian cells) YFGKLECKLSVIRNLNDQVLFIDQGNRPLFEDMTDSDSRDNAPRTIFIICMYKDSQPRGMAVTISVKSEKISTLSSENKIISFKEMNPPDNIKDTKSDIIFFQRSVPGHDNKMQFESSSYEGYFLASEKERDLFKLILKKEDELGDRSIMFTVQNED" reported_value=7.26
